In this section, each of the molecules is paired with its reported Cmax.
- measurement.description: Cmax in Wistar rat at 1 mg/kg, po
- Format: ADME, organism-based
- Parameters: dose 1 mg/kg, route oral
- condition.label: in vivo
Report only the number, with the unit ng/mL understood.

Example molecules with recorded Cmax:
{"columns": ["molecule", "metric", "val"],
 "data": [
  ["Cc1cc(=O)c(Oc2ccc(F)cc2F)c(-c2ccc([S+](C)[O-])cc2)o1 (centres undefined)", "Cmax", 1310],
  ["Cc1cc(=O)c(Oc2ccc(Br)cc2F)c(-c2ccc(S(C)(=O)=O)cc2)o1", "Cmax", 177],
  ["Cc1cc(=O)c(Oc2ccc(Br)cc2F)c(-c2ccc([S+](C)[O-])cc2)o1 (centres undefined)", "Cmax", 37]
]}

Okay, now this molecule:
Which Cmax value is on record for Cc1cc(=O)c(Oc2ccc(F)cc2F)c(-c2ccc(S(C)(=O)=O)cc2)o1 ? 1510

* * *

Items are presented alongside their recorded remaining at 0.5 h, 5 µM.
- measurement.description: Metabolic stability in rat liver microsomes at 5 uM after 30 min […]
- Assay type: ADME, Microsome
- condition.label: in the assay text read “37 degC” for “30 degC”, read-out: Stability
# unit: % | format: bare number

Use these answered entries as a reference point.
{"columns": ["molecule", "remaining at 0.5 h, 5 µM (%)"],
 "data": [
  ["Cc1cc(=O)c(Oc2ccc(Cl)cc2F)c(-c2ccc([S@@+](C)[O-])cc2)o1", 87],
  ["Cc1cc(=O)c(Oc2ccc(Cl)cc2F)c(-c2ccc([S+](C)[O-])cc2)o1 (configuration not stated)", 86]
]}

Item Cc1cc(=O)c(Oc2ccc(Br)cc2F)c(-c2ccc([S@+](C)[O-])cc2)o1 has what recorded remaining at 0.5 h, 5 µM? 80

* * *

- measurement.description: Solubility in PBS at pH 7.2, 37 degC after 24 hrs
- Format: physicochemical
metric: solubility at 24 h (µg/mL)
Give the value, in units of µg/mL, as a plain number.

{"columns": ["compound", "val"],
 "data": [
  ["Cc1cc(=O)c(Oc2ccc(Cl)cc2F)c(-c2ccc([S+](C)[O-])cc2)o1 (stereo unspecified)", 37],
  ["Cc1cc(=O)c(Oc2ccc(Br)cc2F)c(-c2ccc(S(C)(=O)=O)cc2)o1", 1],
  ["Cc1cc(=O)c(Oc2ccc(Br)cc2F)c(-c2ccc([S+](C)[O-])cc2)o1 (stereo unspecified)", 15],
  ["Cc1cc(=O)c(Oc2ccc(F)cc2F)c(-c2ccc(S(C)(=O)=O)cc2)o1", 7],
  ["Cc1cc(=O)c(Oc2ccc(F)cc2F)c(-c2ccc([S+](C)[O-])cc2)o1 (stereo unspecified)", 150]
]}

Now consider a different compound.
Would you kindly share the measured solubility at 24 h for Cc1cc(=O)c(Oc2ccc(Cl)cc2F)c(-c2ccc(S(C)(=O)=O)cc2)o1 ? 5

* * *

In this section, each of the molecules is paired with its reported solubility at 24 h.
- measurement.description: Solubility in simulated gastric fluid at pH 1.8, 37 degC after 24 hrs
- Format: physicochemical

The cases that follow already have their solubility at 24 h on record.
{"columns": ["molecule", "metric", "val"],
 "data": [
  ["Cc1cc(=O)c(Oc2ccc(Cl)cc2F)c(-c2ccc([S+](C)[O-])cc2)o1 (stereo unspecified)", "solubility at 24 h", "70 µg/mL"],
  ["Cc1cc(=O)c(Oc2ccc(F)cc2F)c(-c2ccc([S+](C)[O-])cc2)o1 (stereo unspecified)", "solubility at 24 h", "527 µg/mL"],
  ["Cc1cc(=O)c(Oc2ccc(Cl)cc2F)c(-c2ccc(S(C)(=O)=O)cc2)o1", "solubility at 24 h", "18 µg/mL"],
  ["Cc1cc(=O)c(Oc2ccc(Br)cc2F)c(-c2ccc(S(C)(=O)=O)cc2)o1", "solubility at 24 h", "4 µg/mL"],
  ["Cc1cc(=O)c(Oc2ccc(Br)cc2F)c(-c2ccc([S+](C)[O-])cc2)o1 (stereo unspecified)", "solubility at 24 h", "31 µg/mL"]
]}

Okay, now this molecule:
Consider the molecule shown here: Cc1cc(=O)c(Oc2ccc(F)cc2F)c(-c2ccc(S(C)(=O)=O)cc2)o1 What is its recorded solubility at 24 h? 9 µg/mL

* * *

- Species on record: Rattus norvegicus
- measurement.description: Inhibition of yeast-induced pyresis in Wistar rat
- Format: functional
Here the recorded ED50 is given for each entry.
Output spec: scalar in mg/kg, unitless text.

Before answering, review these 2 worked examples.
{"columns": ["compound", "val"],
 "data": [
  ["Cc1cc(=O)c(Oc2ccc(Br)cc2F)c(-c2ccc(S(C)(=O)=O)cc2)o1", 3.2],
  ["Cc1cc(=O)c(Oc2ccc(F)cc2F)c(-c2ccc([S+](C)[O-])cc2)o1 (stereo not drawn)", 1.3]
]}

Now for another entry.
Param item = Cc1cc(=O)c(Oc2ccc(Cl)cc2F)c(-c2ccc(S(C)(=O)=O)cc2)o1 ; retrieve measured ED50. 0.8

* * *

- measurement.description: Tmax in Wistar rat at 1 mg/kg, po
- Type: ADME, organism-based
- Design: dose 1 mg/kg, route oral
- condition.label: in vivo
metric: Tmax (min)
Give the value, in units of min, as a plain number.

Form field: reported Tmax of Cc1cc(=O)c(Oc2ccc(F)cc2F)c(-c2ccc([S+](C)[O-])cc2)o1 (centres undefined) 18

Now give it for Cc1cc(=O)c(Oc2ccc(Br)cc2F)c(-c2ccc(S(C)(=O)=O)cc2)o1 too. 132

Next molecule: Cc1cc(=O)c(Oc2ccc(F)cc2F)c(-c2ccc(S(C)(=O)=O)cc2)o1 60

For Cc1cc(=O)c(Oc2ccc(Br)cc2F)c(-c2ccc([S+](C)[O-])cc2)o1 (centres undefined) then? 18

* * *

- measurement.description: Metabolic stability in human liver microsomes at 5 uM after 30 min […]
- Assay type: ADME, Microsome
- condition.label: in the assay text read “37 degC” for “30 degC”, read-out: Stability
metric: remaining at 0.5 h, 5 µM (%)
Please give a number only; it is taken to be in %.

Sample answers from the record:
{"columns": ["compound", "val"],
 "data": [
  ["Cc1cc(=O)c(Oc2ccc(Cl)cc2F)c(-c2ccc([S@@+](C)[O-])cc2)o1", 48],
  ["Cc1cc(=O)c(Oc2ccc(Br)cc2F)c(-c2ccc(S(C)(=O)=O)cc2)o1", 12],
  ["Cc1cc(=O)c(Oc2ccc(Br)cc2F)c(-c2ccc([S+](C)[O-])cc2)o1 (centres undefined)", 64],
  ["Cc1cc(=O)c(Oc2ccc(F)cc2F)c(-c2ccc(S(C)(=O)=O)cc2)o1", 2]
]}

Quick one: remaining at 0.5 h, 5 µM of Cc1cc(=O)c(Oc2ccc(F)cc2F)c(-c2ccc([S@@+](C)[O-])cc2)o1 ? 20

Note, next up: Cc1cc(=O)c(Oc2ccc(Cl)cc2F)c(-c2ccc(S(C)(=O)=O)cc2)o1 6

Could you do the same for Cc1cc(=O)c(Oc2ccc(F)cc2F)c(-c2ccc([S@+](C)[O-])cc2)o1 , please? 17

Can you check Cc1cc(=O)c(Oc2ccc(Cl)cc2F)c(-c2ccc([S@+](C)[O-])cc2)o1 next? 41

Repeat with Cc1cc(=O)c(Oc2ccc(F)cc2F)c(-c2ccc([S+](C)[O-])cc2)o1 (centres undefined) 24

* * *

- measurement.description: Metabolic stability in human liver microsomes at 5 uM after 30 min […]
- Format: ADME, Microsome
- condition.label: in the assay text read “37 degC” for “30 degC”, read-out: Stability
metric: remaining at 0.5 h, 5 µM

For orientation, consider the following solved cases.
{"columns": ["compound", "remaining at 0.5 h, 5 µM"],
 "data": [
  ["Cc1cc(=O)c(Oc2ccc(Br)cc2F)c(-c2ccc([S@@+](C)[O-])cc2)o1", "62%"],
  ["Cc1cc(=O)c(Oc2ccc(Cl)cc2F)c(-c2ccc([S+](C)[O-])cc2)o1 (stereo not drawn)", "57%"]
]}

Now consider a different compound.
Return reported remaining at 0.5 h, 5 µM; argument: Cc1cc(=O)c(Oc2ccc(Br)cc2F)c(-c2ccc([S@+](C)[O-])cc2)o1 42%

* * *

- target.or.system: Prostaglandin G/H synthase 2 (Homo sapiens)
- Sequence (P35354 whole entry): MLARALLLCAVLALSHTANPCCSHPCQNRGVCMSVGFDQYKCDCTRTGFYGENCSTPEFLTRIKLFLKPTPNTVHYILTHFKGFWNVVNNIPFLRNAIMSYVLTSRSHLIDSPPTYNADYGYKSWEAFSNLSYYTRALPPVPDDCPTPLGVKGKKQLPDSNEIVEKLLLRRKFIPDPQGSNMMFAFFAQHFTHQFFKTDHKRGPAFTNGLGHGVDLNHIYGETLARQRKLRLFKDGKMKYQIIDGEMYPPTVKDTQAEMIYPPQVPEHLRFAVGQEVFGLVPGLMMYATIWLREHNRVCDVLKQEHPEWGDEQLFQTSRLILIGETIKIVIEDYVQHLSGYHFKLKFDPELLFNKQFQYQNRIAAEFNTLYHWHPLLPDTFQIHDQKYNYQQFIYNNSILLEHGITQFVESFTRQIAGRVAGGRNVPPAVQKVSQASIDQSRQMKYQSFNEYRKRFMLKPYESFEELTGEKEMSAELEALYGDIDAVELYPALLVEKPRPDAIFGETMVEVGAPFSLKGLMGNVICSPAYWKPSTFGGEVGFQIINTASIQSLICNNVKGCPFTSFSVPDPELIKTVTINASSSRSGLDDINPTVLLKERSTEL
- measurement.description: Inhibition of COX2 in human whole blood
metric: IC50 (nM)
The answer is to be given in nM; state only the numeric part.

Use these answered entries as a reference point.
{"columns": ["molecule", "target.or.system", "IC50 [nM]"],
 "data": [
  ["Cc1cc(=O)c(Oc2ccc(F)cc2F)c(-c2ccc([S@+](C)[O-])cc2)o1", "Prostaglandin G/H synthase 2 (Homo sapiens)", 270],
  ["Cc1cc(=O)c(Oc2ccc(F)cc2F)c(-c2ccc([S@@+](C)[O-])cc2)o1", "Prostaglandin G/H synthase 2 (Homo sapiens)", 2100]
]}

What does the record list as IC50 for Cc1cc(=O)c(Oc2ccc(Br)cc2F)c(-c2ccc([S@+](C)[O-])cc2)o1 ? 200

Could you do the same for Cc1cc(=O)c(Oc2ccc(F)cc2F)c(-c2ccc([S+](C)[O-])cc2)o1 (stereo not given) , please? 920

Quick one: Cc1cc(=O)c(Oc2ccc(Br)cc2F)c(-c2ccc([S@@+](C)[O-])cc2)o1 1580
